Assay: Cmax in mouse at 100 mg/kg, po
Assay type: ADME, organism-based
Set-up: route oral, dose 100 mg/kg
Settings: in vivo
readout-type: Cmax (ng/mL)
Lab book: enter the figure in ng/mL, no units written.

Entry "CNC(=O)[C@@H]1CCCN1S(=O)(=O)c1ccc(Cl)c(COc2cccc3c(-c4cncn4C)cc(C(C)C)nc23)c1Cl" ; Cmax = 27500

###

Assay: Half life in mouse at 10 mg/kg, po
Type: ADME, organism-based
Conditions: in vivo
readout-type: half-life

Entry "CNC(=O)[C@@H]1CCCN1S(=O)(=O)c1ccc(Cl)c(COc2cccc3c(-c4cncn4C)cc(C(C)C)nc23)c1Cl" ; half-life = < 1 h
